assayProcedure: E-2.3 inhalative, oral and intravenous single doses in healthy male subjects: plasma concentrations and lung deposition
Format: in vivo, human
testParameters: male, human, plasma, inhaled, 1000 μg, healthy male subjects, single 1000 μg inhale, N = 16; 6 h after dose; read-out: Geometric mean of plasma concentrations
measurementLabel: concentration at 6 h
Provide a numeric answer, followed by its unit.

Recorded concentration at 6 h of O=C(O)c1ccc(CCN(CCc2ccccc2OCc2ccc(-c3ccc(C(F)(F)F)cc3)cc2Cl)[C@H]2CCCc3nc(C(=O)O)ccc32)cc1 [example 4] , please.
0.583 ng/mL

----------
assayProcedure: E-2.3 inhalative, oral and intravenous single doses in healthy male subjects: plasma concentrations and lung deposition
Type: in vivo, human
testParameters: male, human, plasma, inhaled, 1000 μg, healthy male subjects, single 1000 μg inhale + Charcoal Block, N = 16; 12 h after dose; read-out: Geometric mean of plasma concentrations
Protocol: E-2.3 Inhalative, Oral and Intravenous Administration of Single Doses of sGC an Activator in Healthy Male Subjects—Lung Deposition Healthy white male subjects, aged 18 to 45 years with a body mass index (BMI) above/equal 18.5 and below/equal 29.9 kg/m^2 were treated in a clinical phase I study with a single inhaled dose of 1000 μg (nominal dose), a single inhaled dose of 1000 μg (nominal dose)+charcoal block, a single oral dose of 1000 μg and a single infusion over 2 h of 100 μg of example 4. […]
measurementLabel: concentration at 12 h

Recorded concentration at 12 h of O=C(O)c1ccc(CCN(CCc2ccccc2OCc2ccc(-c3ccc(C(F)(F)F)cc3)cc2Cl)[C@H]2CCCc3nc(C(=O)O)ccc32)cc1 , please.
0.22 ng/mL

----------
assayProcedure: E-2.3 inhalative, oral and intravenous single doses in healthy male subjects: plasma concentrations and lung deposition
Type: in vivo, human
testParameters: male, human, plasma, iv, 100 μg, healthy male subjects, 100 μg IV infusion over 2 h, N = 15; 1.5 h after dose; read-out: Geometric mean of plasma concentrations
measurementLabel: concentration at 1.5 h (ng/mL)
Answer with a number only, understood to be in ng/mL.

Recorded concentration at 1.5 h of O=C(O)c1ccc(CCN(CCc2ccccc2OCc2ccc(-c3ccc(C(F)(F)F)cc3)cc2Cl)[C@H]2CCCc3nc(C(=O)O)ccc32)cc1 , please.
3.15

----------
assayProcedure: Caco-2 permeability test
Format: in vitro ADME, human
testParameters: human; Caco-2, 2.4 μM, 2 h at 37° C.; read-out: Papp A − B (mean +/− SD)
measurementLabel: Papp A→B at 2 h, 2.4 μM (×10⁻⁶ cm/s)
Answer with a number only, understood to be in ×10⁻⁶ cm/s.

Recorded Papp A→B at 2 h, 2.4 μM of COC(=O)N(C)c1c(N)nc(-c2nn(Cc3ccccc3F)c3ncccc23)nc1N [Comparative example 2 (Riociguat)] , please.
3.5

----------
assayProcedure: E-2.3 inhalative, oral and intravenous single doses in healthy male subjects: plasma concentrations and lung deposition
Type: in vivo, human
testParameters: male, human, plasma, iv, 100 μg, healthy male subjects, 100 μg IV infusion over 2 h, N = 15; 2.25 h after dose; read-out: Geometric mean of plasma concentrations
measurementLabel: concentration at 2.25 h (ng/mL)
Answer with a number only, understood to be in ng/mL.

Recorded concentration at 2.25 h of O=C(O)c1ccc(CCN(CCc2ccccc2OCc2ccc(-c3ccc(C(F)(F)F)cc3)cc2Cl)[C@H]2CCCc3nc(C(=O)O)ccc32)cc1 , please.
1.42
